target: Estrogen receptor (Homo sapiens) (UniProt P03372); test: Antagonist activity at ERalpha in human MCF7 cells assessed as decrease in 3,17-beta-estradiol-induced pS2 gene expression at 1 uM after 24 hrs by real-time quantitative PCR analysis; type: functional, cell-based
Sequence (P03372 whole entry): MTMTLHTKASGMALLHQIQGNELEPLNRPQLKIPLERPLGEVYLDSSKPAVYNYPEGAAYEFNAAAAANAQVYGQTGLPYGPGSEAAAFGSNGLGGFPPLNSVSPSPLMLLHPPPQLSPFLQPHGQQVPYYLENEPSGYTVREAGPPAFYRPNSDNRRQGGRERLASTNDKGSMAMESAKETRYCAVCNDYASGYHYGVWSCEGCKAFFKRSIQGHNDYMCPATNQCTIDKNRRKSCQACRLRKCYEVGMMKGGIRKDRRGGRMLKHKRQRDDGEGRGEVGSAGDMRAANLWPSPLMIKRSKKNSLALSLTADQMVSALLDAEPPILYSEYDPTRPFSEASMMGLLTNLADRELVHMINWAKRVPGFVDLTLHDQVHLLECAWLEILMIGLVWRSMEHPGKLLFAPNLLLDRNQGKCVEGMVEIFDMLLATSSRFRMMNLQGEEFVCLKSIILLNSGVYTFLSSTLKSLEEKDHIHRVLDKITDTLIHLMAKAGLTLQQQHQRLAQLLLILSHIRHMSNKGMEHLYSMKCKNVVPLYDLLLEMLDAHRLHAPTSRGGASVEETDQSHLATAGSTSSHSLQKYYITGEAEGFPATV
MEASURE: inhibition (%)
Kindly provide the numeric value in % only, without the unit symbol.

molecule="Oc1ccc(CCCC2=NOC(c3ccccc3)C2)cc1 (single isomer, unassigned; 45b)" measured_on="Estrogen receptor (Homo sapiens) (UniProt P03372)" measure=inhibition unit_info=% result_number=27
molecule="O=C(CCCc1ccc(O)cc1)CC(O)c1ccccc1 (single isomer, unassigned; 50a)" measured_on="Estrogen receptor (Homo sapiens) (UniProt P03372)" measure=inhibition unit_info=% result_number=23
molecule="O=C(CCCc1ccc(O)cc1)CC(O)c1ccccc1 (single isomer, unassigned; 50b)" measured_on="Estrogen receptor (Homo sapiens) (UniProt P03372)" measure=inhibition unit_info=% result_number=29

Would you kindly look at the next entry?
[in] Consider the molecule Oc1ccc(CCCC2=NOC(c3ccccc3)C2)cc1 (single isomer, unassigned; 45a) and give its measured inhibition.
[out] 32

Values were extracted from ChEMBL document CHEMBL1157808.
